target: LNX1_1, Q8TBB1; experiment: holdup assay; set-up: key: below the threshold = too weak to quantify, mostly under pKd 3.1 to 4; conditions: plain residues with an end cap or a label only (N-terminal biotin on a linker: ado-ado)
Sequence (Q8TBB1 261-371): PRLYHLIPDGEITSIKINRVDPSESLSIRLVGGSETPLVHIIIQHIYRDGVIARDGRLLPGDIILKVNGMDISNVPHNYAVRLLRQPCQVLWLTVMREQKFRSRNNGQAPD
pKd values for the binders below.
parameter-measured: pKd

- QGPVETESVV [SLC45A4, Q5BKX6]: 3.95
- YYKRPVQEWV [MMP24, Q9Y5R2]: 3.5
- ETQVTAETVI [TMEM225B, P0DP42]: 3.59

This collection of values is drawn from paper PMC9482650.
